// reported %Inh per item
System: PHKG1;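 note: KINOMEscan kinase panel screen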
Details: concentration: 1 μM, replicates: in singlicate; n = 1
assay readout: %Inh (%)

| compound | assay readout | result units | experimental result |
| --- | --- | --- | --- |
| CSc1ccc(NC2=C(c3ccccc3Cl)C(=O)NC2=O)cc1 | %Inh | % | 0 |
| Cl.Fc1ccccc1COc1ccc(Nc2ncnc3ccc(-c4nnc(C(F)(F)F)o4)cc23)cc1Cl | %Inh | % | 0 |
| Fc1ccc(-c2ncn(CCCNCc3ccccc3)c2-c2ccncc2)cc1 | %Inh | % | 0 |
| Nc1nccc2scc(-c3ccc4c(c3)CCN4C(=O)Cc3cc(F)ccc3F)c12 | %Inh | % | 4 |
| COc1cc2c(Nc3cccc(NC(=O)c4ccccc4)c3)ncnc2cc1OCCCN1CCOCC1 | %Inh | % | 5 |
| CNc1nccc(-c2c(-c3ccc(F)cc3)ncn2CCCN2CCOCC2)n1 | %Inh | % | 0 |
| CCc1nc(-c2cccc(C)c2)c(-c2ccnc(NC(=O)c3ccccc3)c2)s1 | %Inh | % | 0 |
| Cl.Cl.c1ccc(-c2cc3ccncc3cc2OC2CCNCC2)cc1 | %Inh | % | 2 |
| Clc1cc(Nc2ncnc3cc[nH]c23)ccc1OCc1ccccn1 | %Inh | % | 0 |
| OCCOCCn1ccc2ncnc(Nc3ccc(Oc4cccc(Cl)c4)c(Cl)c3)c21 | %Inh | % | 0 |
| COc1ccc(Nc2nccc(N3CCC(NC(=O)c4cccc(NC(C)=O)c4)C3)n2)cc1 (stereo not drawn) | %Inh | % | 0 |
| N#Cc1ccc(Oc2ccc(Nc3ncnc4cc[nH]c34)cc2Cl)cc1 | %Inh | % | 5 |
| CC(C)(C)OC(=O)NC1CCCN(c2cc(-c3ccc4c(N)n[nH]c4c3)nc(N)n2)C1 (stereo not drawn) | %Inh | % | 0 |
| COc1ccc(Nc2nccc(N3CCC(NC(=O)Nc4ccc5c(c4)OCO5)C3)n2)cc1 (stereo not drawn) | %Inh | % | 0 |
| Cc1ccc(C)c(NC(=O)NCCNc2ccnc(Nc3ccc(F)cc3)n2)c1 | %Inh | % | 0 |
| Nc1nc(-c2ccccn2)c(-c2ccnc3ccccc23)s1 | %Inh | % | 0 |
| COC(=O)c1c(-c2ccccc2)c2cc(Cl)ccc2c(=O)n1Cc1ccc(S(C)(=O)=O)cc1 | %Inh | % | 4 |
| O=C(c1ccc(-c2cc(-c3c[nH]nc3-c3ccccn3)ccn2)cc1)N1CCCC1 | %Inh | % | 0 |
| Cc1ccc(NC(=O)c2cccc(C#N)c2)cc1-c1ccc(C(=O)Nc2ccncc2)cc1 | %Inh | % | 2 |
| O=C(Nc1ccccc1F)NC1CCN(c2ccnc(Nc3ccc(F)cc3)n2)C1 (stereo not drawn) | %Inh | % | 13 |
| CN1CCC(n2cnc(-c3ccc(F)cc3)c2-c2ccnc(NC3CCNCC3)n2)CC1 | %Inh | % | 0 |
| COc1cc2ncnc(Nc3ccc(OCc4ccccc4Br)c(Cl)c3)c2cc1OC.Cl | %Inh | % | 3 |
| Clc1ccc(-c2cc(-c3c[nH]nc3-c3ccccn3)ccn2)cc1 | %Inh | % | 0 |
| Cc1cccc(-c2nc(Nc3ccc4[nH]nnc4c3)c3ccccc3n2)n1 | %Inh | % | 0 |
| Cn1cc(-c2ccc3c(c2)CCN3C(=O)Cc2cccc(C(F)(F)F)c2)c2c(N)ncnc21 | %Inh | % | 6 |
| Cl.O=S(=O)(c1cccc(F)c1)c1ccc(Nc2ncnc3cc(Br)sc23)cc1Cl | %Inh | % | 0 |
| CS(=O)(=O)CCNCc1nc(-c2ccc3ncnc(Nc4ccc(OCc5cccc(F)c5)c(Cl)c4)c3c2)cs1.Cl | %Inh | % | 0 |
| COc1ccc(NC(=O)c2ccc(-c3cc(-c4nnc(C)o4)ccc3C)cc2)cc1 | %Inh | % | 3 |
| Fc1cccc(COc2ccc(Nc3ncnc4sc(-c5ccc[nH]5)cc34)cc2Cl)c1 | %Inh | % | 0 |
| CSc1nn2c(=O)cc(N3CCOCC3)nc2n1Cc1cccc(Cl)c1Cl | %Inh | % | 0 |
| COc1ccc(-c2nc3n(c2-c2ccncc2)CCC3)cc1 | %Inh | % | 0 |
| CC(=O)Nc1n[nH]c2ncc(-c3ccccc3)cc12 | %Inh | % | 2 |
| CC(C)(C)c1ccc(-n2cnc3c(N)ncnc32)cc1 | %Inh | % | 0 |
| O=C(NCCCN1CCCC1=O)c1cnc(NCc2cc(Cl)ccc2Cl)nc1NC1CCNCC1 | %Inh | % | 0 |
| Oc1ccc2ncnc(Nc3ccc(OCc4ccccc4)cc3)c2c1 | %Inh | % | 0 |
| C[C@H]1CC[C@@H](C(=O)Nc2ccccc2)CN1c1cc(-c2ccc3c(N)n[nH]c3c2)nc(N)n1 | %Inh | % | 0 |
